# target-under-test: Histone deacetylase 4 (Homo sapiens, UniProt P56524)
# Sequence (P56524 whole entry): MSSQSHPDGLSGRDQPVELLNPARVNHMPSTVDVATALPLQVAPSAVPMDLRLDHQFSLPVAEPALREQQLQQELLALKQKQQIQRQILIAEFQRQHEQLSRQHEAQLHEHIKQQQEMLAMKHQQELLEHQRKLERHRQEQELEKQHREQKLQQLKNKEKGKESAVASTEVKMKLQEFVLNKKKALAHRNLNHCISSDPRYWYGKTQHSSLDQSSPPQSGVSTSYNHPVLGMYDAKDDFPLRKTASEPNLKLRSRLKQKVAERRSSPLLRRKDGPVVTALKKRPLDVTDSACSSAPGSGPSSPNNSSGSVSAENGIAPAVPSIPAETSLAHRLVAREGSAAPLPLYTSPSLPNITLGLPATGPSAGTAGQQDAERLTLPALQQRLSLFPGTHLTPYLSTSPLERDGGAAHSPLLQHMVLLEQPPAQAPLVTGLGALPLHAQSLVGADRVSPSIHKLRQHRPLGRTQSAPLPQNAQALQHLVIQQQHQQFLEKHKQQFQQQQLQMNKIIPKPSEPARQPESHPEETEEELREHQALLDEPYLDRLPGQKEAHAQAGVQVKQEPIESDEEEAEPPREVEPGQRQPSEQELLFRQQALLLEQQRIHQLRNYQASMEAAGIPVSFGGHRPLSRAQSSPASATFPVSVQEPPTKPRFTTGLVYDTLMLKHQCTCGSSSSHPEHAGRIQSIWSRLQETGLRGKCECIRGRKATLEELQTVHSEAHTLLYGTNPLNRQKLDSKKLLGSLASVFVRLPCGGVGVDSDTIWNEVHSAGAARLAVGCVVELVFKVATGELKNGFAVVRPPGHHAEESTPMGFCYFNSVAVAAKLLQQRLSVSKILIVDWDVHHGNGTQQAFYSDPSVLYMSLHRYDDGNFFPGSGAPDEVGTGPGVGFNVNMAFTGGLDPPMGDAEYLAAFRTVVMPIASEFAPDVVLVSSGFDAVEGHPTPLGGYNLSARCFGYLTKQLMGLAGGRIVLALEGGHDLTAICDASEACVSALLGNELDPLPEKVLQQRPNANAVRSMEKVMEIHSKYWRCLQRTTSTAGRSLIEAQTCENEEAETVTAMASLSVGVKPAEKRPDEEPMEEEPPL
measured-property: IC50 (µM)
Reply numerically in µM, unit not repeated.

For O=C(NO)C1C=CCC1c1ccccc1 (stereo unspecified) , what is its reported IC50?
12.3
